This listing pairs compounds with measured IC50.
# study-system: UniProtKB P11229
# Sequence (P11229 whole entry): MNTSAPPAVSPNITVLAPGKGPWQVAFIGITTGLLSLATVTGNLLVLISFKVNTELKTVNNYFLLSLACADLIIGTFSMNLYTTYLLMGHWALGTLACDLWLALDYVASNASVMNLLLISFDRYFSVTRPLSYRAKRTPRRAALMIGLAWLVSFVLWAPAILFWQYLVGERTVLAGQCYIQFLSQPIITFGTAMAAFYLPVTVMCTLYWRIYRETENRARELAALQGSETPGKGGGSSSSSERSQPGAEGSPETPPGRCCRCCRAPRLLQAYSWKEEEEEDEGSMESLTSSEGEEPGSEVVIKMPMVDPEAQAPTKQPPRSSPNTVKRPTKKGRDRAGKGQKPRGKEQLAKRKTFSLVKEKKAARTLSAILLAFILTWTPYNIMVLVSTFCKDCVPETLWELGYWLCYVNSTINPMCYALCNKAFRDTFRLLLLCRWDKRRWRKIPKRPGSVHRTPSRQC
# method: Antagonist activity against human cloned muscarinic M1 receptor expressed in CHO cells assessed as inhibition of acetylcholine-induced calcium mobilization by FLIPR

[
  {
    "cpd-smiles": "CN1[C@@H]2CC[C@H]1C[C@@H](CC(CO)(c1ccccc1)c1ccccc1)C2",
    "modifier-sign": "<",
    "IC50, nM": 10
  },
  {
    "cpd-smiles": "CN1[C@@H]2CC[C@H]1C[C@@H](CC(O)(c1ccccc1)c1ccccc1)C2",
    "modifier-sign": "<",
    "IC50, nM": 10
  },
  {
    "cpd-smiles": "CN1[C@@H]2CC[C@H]1C[C@@H](CC(c1ccccc1)(c1ccccc1)c1ccccc1)C2",
    "modifier-sign": "=",
    "IC50, nM": 105
  },
  {
    "cpd-smiles": "CN1[C@@H]2CC[C@H]1C[C@@H](CC(CNS(=O)(=O)c1ccccc1)(c1ccccc1)c1ccccc1)C2",
    "modifier-sign": "=",
    "IC50, nM": 770
  },
  {
    "cpd-smiles": "CN1[C@@H]2CC[C@H]1C[C@@H](CC(CNC(N)=O)(c1ccccc1)c1ccccc1)C2",
    "modifier-sign": "=",
    "IC50, nM": 3830
  },
  {
    "cpd-smiles": "CN1[C@@H]2CC[C@H]1C[C@@H](CC(C(=O)O)(c1ccccc1)c1ccccc1)C2",
    "modifier-sign": "=",
    "IC50, nM": 277
  },
  {
    "cpd-smiles": "C[N+]1(C)[C@@H]2CC[C@H]1C[C@@H](CC(C#N)(c1ccccc1)c1ccccc1)C2.[Br-]",
    "modifier-sign": "<",
    "IC50, nM": 10
  },
  {
    "cpd-smiles": "C[N+]1(C)[C@@H]2CC[C@H]1C[C@@H](CC(CO)(c1ccccc1)c1ccccc1)C2.[Br-]",
    "modifier-sign": "<",
    "IC50, nM": 10
  },
  {
    "cpd-smiles": "CN1[C@@H]2CC[C@H]1C[C@@H](CC(CNC(=O)NCc1ccccc1)(c1ccccc1)c1ccccc1)C2",
    "modifier-sign": "=",
    "IC50, nM": 1020
  },
  {
    "cpd-smiles": "CN1[C@@H]2CC[C@H]1C[C@@H](CC(CNS(C)(=O)=O)(c1ccccc1)c1ccccc1)C2",
    "modifier-sign": "=",
    "IC50, nM": 1600
  },
  {
    "cpd-smiles": "CCNC(=O)NCC(C[C@H]1C[C@H]2CC[C@@H](C1)N2C)(c1ccccc1)c1ccccc1",
    "modifier-sign": "=",
    "IC50, nM": 1280
  },
  {
    "cpd-smiles": "CN1[C@@H]2CC[C@H]1C[C@@H](CC(C(=O)NCc1ccccc1)(c1ccccc1)c1ccccc1)C2",
    "modifier-sign": "=",
    "IC50, nM": 596
  },
  {
    "cpd-smiles": "CN1[C@@H]2CC[C@H]1C[C@@H](CC(C#N)(c1ccccc1)c1ccccc1)C2",
    "modifier-sign": "<",
    "IC50, nM": 10
  },
  {
    "cpd-smiles": "CC(=O)NCC(C[C@H]1C[C@H]2CC[C@@H](C1)N2C)(c1ccccc1)c1ccccc1",
    "modifier-sign": "=",
    "IC50, nM": 2200
  },
  {
    "cpd-smiles": "C[N+]1(C)[C@@H]2CC[C@H]1C[C@@H](CC(O)(c1ccccc1)c1ccccc1)C2.[Br-]",
    "modifier-sign": "<",
    "IC50, nM": 10
  }
]
